Listed here: items and their measured ED50.
- Test system: hepatic 14C-cholesterogenesis
- Assay procedure: Test A: hepatic 14C-cholesterogenesis, in vivo, in the rat
A number alone suffices; assume mg/kg.

Some entries whose results are on file:
CC[C@H](C)C(=O)O[C@H]1C[C@@H](C)C=C2C=C[C@H](C)[C@H](CC[C@@H]3C[C@@H](O)CC(=O)O3)[C@H]21 [Lovastatine, reference compound]    0.39
O=C(O)C[C@H](O)C[C@H](O)/C=C/C1=C(c2ccccc2)c2ccccc2SC12CCCC2 (relative stereo) [Compound No. 65]    0.38
CCOC(=O)C[C@H](O)C[C@H](O)/C=C/C1=C(c2ccc(Cl)cc2)c2ccccc2OC12CCCC2 (relative stereo) [Compound No. 19]    0.09
COC(=O)C[C@H](O)C[C@H](O)/C=C/C1=C(c2ccccc2)c2ccccc2CC1(C)C (relative stereo) [Compound No. 2]    0.6

Enquiry: Consider the compound CCOC(=O)C[C@H](O)C[C@H](O)/C=C/C1=C(c2ccc(F)cc2)c2ccccc2OC12CCCC2 (relative stereo) [Compound No. 1] and give its measured ED50.
Return: 0.17

====

Listed here: items and their measured IC50.
- System name: TXA2 receptors (Cavia porcellus)
- Construct: platelet-rich plasmas (PRP) are prepared by aortic punction of anaesthetized animals; endogenous in cells
- Sequence (A0A286Y4I8 1-347): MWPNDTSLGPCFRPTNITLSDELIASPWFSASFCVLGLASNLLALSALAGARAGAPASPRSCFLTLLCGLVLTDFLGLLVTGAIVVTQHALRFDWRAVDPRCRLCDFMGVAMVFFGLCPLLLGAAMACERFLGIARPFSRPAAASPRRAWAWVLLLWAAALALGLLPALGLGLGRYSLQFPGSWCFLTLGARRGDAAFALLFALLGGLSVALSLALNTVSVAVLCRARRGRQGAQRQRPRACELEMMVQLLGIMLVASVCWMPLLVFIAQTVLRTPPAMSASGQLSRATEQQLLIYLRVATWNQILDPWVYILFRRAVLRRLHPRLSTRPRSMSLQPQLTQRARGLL
- Assay procedure: Test C: platelet aggregation induced by an agonist of TXA2 receptors (U 46619), in vitro, platelet-rich plasma
- Cond: guinea pig platelet-rich plasma, U 46619 20 nM, 37° C.
A number alone suffices; assume µM.

CCOC(=O)C[C@H](O)C[C@H](O)/C=C/C1=C(c2ccc(Cl)cc2)c2ccccc2OC12CCCC2 (relative stereo)    28

Attention now turns to another entry.
Enquiry: Consider the compound CCOC(=O)C[C@H](O)C[C@H](O)/C=C/C1=C(c2ccc(F)cc2)c2ccccc2OC12CCCC2 (relative stereo) and give its measured IC50.
Return: 91

====

- Test system: total cholesterolaemia
- Assay procedure: Test B: total cholesterolaemia, in vivo, in the rat treated intravenously with triton WR 1339
- Cond: iv
Listed here: items and their measured ED25.

Some entries whose results are on file:
CC[C@H](C)C(=O)O[C@H]1C[C@@H](C)C=C2C=C[C@H](C)[C@H](CC[C@@H]3C[C@@H](O)CC(=O)O3)[C@H]21 [Lovastatine, reference compound]    130 mg/kg
CCOC(=O)C[C@H](O)C[C@H](O)/C=C/C1=C(c2ccc(F)cc2)c2ccccc2OC12CCCC2 (relative stereo) [Compound No. 1]    29 mg/kg
COC(=O)C[C@H](O)C[C@H](O)/C=C/C1=C(c2ccccc2)c2ccccc2CC1(C)C (relative stereo) [Compound No. 2]    100 mg/kg
O=C(O)C[C@H](O)C[C@H](O)/C=C/C1=C(c2ccccc2)c2ccccc2SC12CCCC2 (relative stereo) [Compound No. 65]    74 mg/kg

Attention now turns to another entry.
Enquiry: Consider the molecule CCOC(=O)C[C@H](O)C[C@H](O)/C=C/C1=C(c2ccc(Cl)cc2)c2ccccc2OC12CCCC2 (relative stereo) [Compound No. 19] and give its measured ED25.
Return: 110 mg/kg
